Attribution: the supplement of paper PMC7877785

Assignment: determine reported self-splicing fitness (ln) for the given sequences.
assay-overview: self-splicing fitness, log relative to wild type (ln ratio); higher = more splicing; Tetrahymena group I intron in knt gene, E. coli kanamycin selection, DiMSum; sequences stand for … in CUCUCU…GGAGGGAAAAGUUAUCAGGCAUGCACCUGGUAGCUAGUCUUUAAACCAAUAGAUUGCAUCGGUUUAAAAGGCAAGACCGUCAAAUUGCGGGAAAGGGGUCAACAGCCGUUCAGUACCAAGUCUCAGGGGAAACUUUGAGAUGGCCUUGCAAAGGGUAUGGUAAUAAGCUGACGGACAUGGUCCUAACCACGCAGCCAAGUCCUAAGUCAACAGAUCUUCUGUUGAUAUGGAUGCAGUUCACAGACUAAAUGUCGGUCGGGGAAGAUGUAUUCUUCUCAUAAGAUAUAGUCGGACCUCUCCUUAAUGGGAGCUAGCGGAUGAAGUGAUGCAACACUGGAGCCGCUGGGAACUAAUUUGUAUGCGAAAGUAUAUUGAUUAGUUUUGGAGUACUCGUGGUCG;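 also: selection with 25 µg/mL kanamycin versus none on LB agar overnight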
recorded-conditions: 37 °C
Answers are plain numbers.

Below: 5 sequences and their reported self-splicing fitness (ln).
ACAUAGCAAUAUUACGCACG | -1.01
CGUUAGCAAUAUUACGCAUG | -0.626
UUCGAGCAAUAUUACGACGU | -1.85
CUGGAGCAAUAUUACGUACU | -2.19
GAGCAGCAAUAUUACGUGAA | -0.526

Each sequence below has a reported value. Please supply its self-splicing fitness (ln).
1. GCAUAGCAAUAUUACGCGAG
2. AGACAGCAAUAUUACGUGAA
3. UCUGAGCAAUAUUACGACAU
4. AAAAAGCAAUAUUACGACCG

(A)
-1.72
-0.982
-2.73
-0.00629

Each sequence below has a reported value. Please supply its self-splicing fitness (ln).
1. AGUAAGCAAUAUUACGGGUA
2. AGUCAGCAAUAUUACGAUUG
3. CGCGAGCAAUAUUACGGGUA
4. AAUCAGCAAUAUUACGGGGA

(A)
[-1.56, -0.258, -2.11, -0.723]

Each sequence below has a reported value. Please supply its self-splicing fitness (ln).
1. CAACAGCAAUAUUACGCGGA
2. GGCGAGCAAUAUUACGAACA
3. ACCGAGCAAUAUUACGUAUC
4. GACUAGCAAUAUUACGGGGG

(A)
[-1.83, -0.12, -2.59, -1.46]

Each sequence below has a reported value. Please supply its self-splicing fitness (ln).
1. UUAGAGCAAUAUUACGCACA
2. UGCCAGCAAUAUUACGUUUU

(A)
1. -0.314
2. -2.56
